- Measurement Target: T1, human MuSK (human, UniProt O15146 24-495)
- T1 construct: Recombinant protein coated on ELISA plates (R&D Systems cat. 10189-MK) or on the Biacore chip; also called human muscle-specific tyrosine protein kinase; full length human MuSK
- T1 sequence: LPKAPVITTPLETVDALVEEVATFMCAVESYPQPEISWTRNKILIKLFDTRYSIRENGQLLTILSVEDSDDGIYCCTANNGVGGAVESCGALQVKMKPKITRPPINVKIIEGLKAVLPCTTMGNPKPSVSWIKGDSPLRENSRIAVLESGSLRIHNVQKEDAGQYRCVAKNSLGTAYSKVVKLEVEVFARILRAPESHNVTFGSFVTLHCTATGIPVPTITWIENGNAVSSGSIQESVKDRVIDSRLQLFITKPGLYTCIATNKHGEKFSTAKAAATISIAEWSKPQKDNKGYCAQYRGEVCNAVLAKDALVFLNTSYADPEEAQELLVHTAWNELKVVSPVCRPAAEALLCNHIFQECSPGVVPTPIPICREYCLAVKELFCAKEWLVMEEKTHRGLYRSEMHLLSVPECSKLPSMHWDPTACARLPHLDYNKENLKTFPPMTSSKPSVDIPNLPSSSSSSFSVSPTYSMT
- Assay Summary: Biacore T200, MuSK on chip (200RU), 22.2 nM Fab, dissociation pH 5.5
Measured Property: koff
Include the unit right after the number.

Would you please look over these solved cases?
>>> result("X2m4 Fab (Fab, V domains shown, Fab format) VH: EVQLVESGGGLVQPGGSLRLSCAASGFTVSSSSIHWVRQAPGKGLEWVASISSSYGSTSYADSVKGRFTISADTSKNTAYLQMNSLRAEDTAVYYCARSEGDRYVSGYSGLDYWGQGTLVTVSS VL: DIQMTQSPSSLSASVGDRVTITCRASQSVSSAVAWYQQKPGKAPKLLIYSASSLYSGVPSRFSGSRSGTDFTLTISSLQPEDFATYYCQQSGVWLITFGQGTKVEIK")
"0.00586 s⁻¹"
>>> result("X17 Fab (Fab, V domains shown, Fab format) VH: EVQLVESGGGLVQPGGSLRLSCAASGFTISYSSIHWVRQAPGKGLEWVASIYSSSGSTYYADSVKGRFTISADTSKNTAYLQMNSLRAEDTAVYYCARGDHGYYVFGYLGMDYWGQGTLVTVSS VL: DIQMTQSPSSLSASVGDRVTITCRASQSVSSAVAWYQQKPGKAPKLLIYSASSLYSGVPSRFSGSRSGTDFTLTISSLQPEDFATYYCQQSYKPGALITFGQGTKVEIK")
"0.00678 s⁻¹"

We now examine a further binder.
Indicate the recorded koff value for this binder: 3B2 Fab (Fab, V domains shown, Fab format; also called Fab 3B2) VH: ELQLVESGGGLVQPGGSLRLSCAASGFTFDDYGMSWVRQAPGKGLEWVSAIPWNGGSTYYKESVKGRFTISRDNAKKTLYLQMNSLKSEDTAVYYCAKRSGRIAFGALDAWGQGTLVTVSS VL: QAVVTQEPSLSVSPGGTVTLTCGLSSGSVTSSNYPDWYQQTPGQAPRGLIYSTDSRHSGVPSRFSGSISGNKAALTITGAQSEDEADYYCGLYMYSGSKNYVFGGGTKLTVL
0.0224 s⁻¹
